- assay system: DNA dC->dU-editing enzyme APOBEC-3F (Homo sapiens) (UniProt Q8IUX4)
- Sequence (Q8IUX4 whole entry, looked up): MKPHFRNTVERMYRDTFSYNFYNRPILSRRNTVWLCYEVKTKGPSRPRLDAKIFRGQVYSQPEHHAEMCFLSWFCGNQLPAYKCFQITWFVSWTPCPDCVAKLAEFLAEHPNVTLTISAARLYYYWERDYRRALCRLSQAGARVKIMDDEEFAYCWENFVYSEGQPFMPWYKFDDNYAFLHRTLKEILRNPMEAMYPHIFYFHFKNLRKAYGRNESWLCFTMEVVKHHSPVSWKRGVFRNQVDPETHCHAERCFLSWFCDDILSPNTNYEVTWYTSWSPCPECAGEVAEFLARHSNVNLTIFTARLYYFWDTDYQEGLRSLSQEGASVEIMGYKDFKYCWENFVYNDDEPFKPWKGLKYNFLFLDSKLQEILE
- assay text: qHTS for inhibitors of Vif-A3F interactions: Cherry picks counterscreen; also: nearly all actives have a fitted effect of over 65% in size
- run parameters: HeLa A3F-eYFP/Vif cells, eYFP fluorescence, 24 h; series mostly up to 46.1 µM
The whole screen tested about 2,100 compounds, of which about 1,100 (52%) were called active. Inconclusive results (about 29%) are left out. Calls follow the shape of the dose curve; as a rule, active = well fitted inhibition curve with a large enough effect; inconclusive = small, poorly fitted or top-dose-only effect; inactive = no such curve, though single readings can be large or run the other way. So high a share suggests a set chosen from earlier hits. The list shows a part of the results.
Assign a class; possible classes are True (active), False (inactive)

QUERY: What did this assay record as the result for Cc1ccc(N=C2NC(=O)/C(=C/c3cn(C)c4ccccc34)S2)cc1C ?
RESULT: True

QUERY: What did this assay record as the result for CCOC1=C/C(=C/c2c(N)n3nc(-c4ccccc4)sc3nc2=O)C=CC1=O ?
RESULT: False

QUERY: What did this assay record as the result for COc1ccc(NS(=O)(=O)c2cc([N+](=O)[O-])ccc2N/N=C/c2c(C)[nH]c3ccccc23)cc1 ?
RESULT: True

QUERY: What did this assay record as the result for CCOC(=O)c1ccc(NC(=O)CSc2nc(-c3ccc(F)cc3)cc(C(F)(F)F)c2C#N)cc1 ?
RESULT: True

QUERY: What did this assay record as the result for O=C1/C(=C/c2ccc(O)cc2)SC(=S)N1Cc1cccnc1 ?
RESULT: False

QUERY: What did this assay record as the result for CCOC(=O)Cc1ccc(Nc2nc3cc(-c4sccc4C)sc3c(=O)n2C)cc1 ?
RESULT: True

QUERY: What did this assay record as the result for O=C(CSc1nc(-c2ccco2)cc(C(F)(F)F)n1)Nc1cccnc1 ?
RESULT: True

QUERY: What did this assay record as the result for Cn1ccnc1Sc1nc2ccccc2nc1NS(=O)(=O)c1ccccc1 ?
RESULT: True

QUERY: What did this assay record as the result for CCOc1ccc(-c2cc(C(=O)NCCc3ccc(OC)c(OC)c3)c3c(-c4ccc(F)cc4)[nH]nc3n2)cc1 ?
RESULT: True

QUERY: What did this assay record as the result for OCCCn1c(C2CCCN2c2nc(-c3ccc(Cl)cc3)cs2)nc2cc(Cl)c(Cl)cc21 (stereo unspecified) ?
RESULT: False

QUERY: What did this assay record as the result for CCOC(=O)N1CCC(Nc2nc3ccccc3nc2NS(=O)(=O)c2ccc(Cl)cc2)CC1 ?
RESULT: True

QUERY: What did this assay record as the result for Cn1cccc1/C=C1\SC(=Nc2ccccc2)NC1=O ?
RESULT: True

QUERY: What did this assay record as the result for O=C1CSC(=S)N1Cc1cccnc1 ?
RESULT: True

QUERY: What did this assay record as the result for CCOC(=O)c1ccc(NC(=O)CSc2nc(-c3ccc(OC)cc3)cc(C(F)(F)F)c2C#N)cc1 ?
RESULT: True

QUERY: What did this assay record as the result for O=C1/C(=C\c2ccc(O)cc2)SC(=S)N1Cc1ccccc1 ?
RESULT: False

QUERY: What did this assay record as the result for CCCCOc1ccc(-c2cc(C(F)(F)F)c(C#N)c(SCC(=O)O)n2)cc1 ?
RESULT: True

QUERY: What did this assay record as the result for Cc1ccc(/C=C2/CNC/C(=C/c3ccc(C)cc3)C2=O)cc1 ?
RESULT: True

QUERY: What did this assay record as the result for CC(=O)Nc1ccc(S(=O)(=O)Nc2nc3ccccc3nc2Sc2nncn2C)cc1 ?
RESULT: True

QUERY: What did this assay record as the result for COc1ccc(-c2cc(-c3nnc(COC(=O)c4ccncc4)o3)c3ccccc3n2)cc1OC ?
RESULT: False

QUERY: What did this assay record as the result for CCc1cc[n+](-c2nc3ccccc3nc2[N-]S(=O)(=O)c2ccc(Br)s2)cc1 ?
RESULT: True

QUERY: What did this assay record as the result for COc1ccc(N/C=C/c2nc(SC)nnc2C)cc1 ?
RESULT: True
